Documented IC50 (cell viability) across a set of compounds
# System: BV-173
# test_settings: 72 h

{"compound": "OCCN(CCO)c1nc(N2CCCCC2)c2nc(N(CCO)CCO)nc(N3CCCCC3)c2n1", "limit_operator": "=", "IC50 (cell viability) / nM": 3550}
{"compound": "OCC(CO)N[C@H]1C[C@](O)(CO)[C@@H](O)[C@H](O)[C@H]1O", "limit_operator": ">", "IC50 (cell viability) / nM": 10000}
{"compound": "c1ccc2c(c1)SCc1c-2[nH]c2ccccc12", "limit_operator": "=", "IC50 (cell viability) / nM": 646}
{"compound": "O=c1[nH]c(=O)n([C@H]2C[C@H](O)[C@@H](CO)O2)cc1I", "limit_operator": "=", "IC50 (cell viability) / nM": 464}
{"compound": "O[C@H]1[C@H](O)[C@@H](O)CN2CC[C@H](O)[C@H]12", "limit_operator": ">", "IC50 (cell viability) / nM": 10000}
{"compound": "CN(C)C(=O)n1nnnc1Cc1ccc(-c2ccccc2)cc1", "limit_operator": "=", "IC50 (cell viability) / nM": 422}
{"compound": "Nc1ccn([C@@H]2O[C@H](CO)[C@@H](O)C2(F)F)c(=O)n1", "limit_operator": "=", "IC50 (cell viability) / nM": 2.13}
{"compound": "COc1cc(C2Oc3cc(C4Oc5cc(O)cc(O)c5C(=O)C4O)ccc3OC2CO)ccc1O (centres undefined)", "limit_operator": ">", "IC50 (cell viability) / nM": 10000}
{"compound": "CN(C)C(=N)NC(=N)N", "limit_operator": ">", "IC50 (cell viability) / nM": 10000}

meta.source: the supplement of paper PMC8671470
